Method: Acute toxicity, oral, mice
Design: species or system SlC:ddy male mice
Condition Info: mouse, in vivo; 800 mg/kg oral, 0.5 hr; read-out: Number of dead mice per 10 mice
Recorded mortality at 0.5 h values for a group of compounds are listed next.
Please give a number only; it is taken to be in %.

{"columns": ["Compound", "mortality at 0.5 h, %"],
 "data": [
  ["CC(C)CC(N(C)C)C1(c2ccc(Cl)cc2)CCC1.Cl (centres unmarked) [Test compound, hydrochloride]", 40]
]}

With those in mind, consider the next compound.
Given CNCCCN1c2ccccc2CCc2ccccc21 , state its recorded mortality at 0.5 h. 100

====

Method: Acute toxicity, oral, mice
Design: species or system SlC:ddy male mice
Condition Info: mouse, in vivo; 800 mg/kg oral, 2 hr; read-out: Number of dead mice per 10 mice
Here, each record is paired with measured mortality at 2 h data.
Number first, unit second: that is the form wanted.

{"columns": ["Compound", "mortality at 2 h"],
 "data": [
  ["CNCCCN1c2ccccc2CCc2ccccc21", "100%"]
]}

Bench note: what mortality at 2 h did CC(C)CC(N(C)C)C1(c2ccc(Cl)cc2)CCC1.Cl (centres unmarked) [Test compound, hydrochloride] show? 50%

====

Method: Acute toxicity, oral, mice
Set-up: species or system SlC:ddy male mice
Condition Info: mouse, in vivo; 200 mg/kg oral, 2 hr; read-out: Number of dead mice per 10 mice
The entries below come with measured mortality at 2 h values attached.
Give the value in % but do not write % after it.

{"columns": ["Compound", "mortality at 2 h, %"],
 "data": [
  ["CNCCCN1c2ccccc2CCc2ccccc21", 0]
]}

Now let's try a different one.
What does the record list as mortality at 2 h for CC(C)CC(N(C)C)C1(c2ccc(Cl)cc2)CCC1.Cl (centres unmarked) [Test compound, hydrochloride] ? 10
